species: Rattus norvegicus; experiment: DrugMatrix - Regimen: Daily Repeat; type: toxicity, organism-based, Sprague-Dawley; parameters: regimen Daily Repeat, gender Male, age 6-8 weeks; conditions: in vivo, po, 0 mg/kg, 120 h, tissue Plasma, route oral GAVAGE, dose level Control, time 5 day, vehicle 100 % WATER
Property: URIC ACID (mg/dL)
Answers are plain numbers, in mg/dL.

Below: 5 molecules and their reported URIC ACID.
>>> print(df.to_string())
                           molecule  recorded_measurement
0       c1ccc([C@H]2CN3CCSC3=N2)cc1                  1.42
1  CN(C)CCCN1c2ccccc2Sc2ccc(Cl)cc21                  0.73
2  C[C@H](CS)C(=O)N1CCC[C@H]1C(=O)O                  2.18
3                      NCCCCCC(=O)O                  1.82
4   C[C@](N)(Cc1ccc(O)c(O)c1)C(=O)O                     2

Please supply URIC ACID for each of the following items, keeping them in order.
1. Cn1cc[nH]c1=S
2. CC(O)CO (centres undefined)

Response:
1. 0.63
2. 1.82

Values compiled from ChEMBL document CHEMBL3885881.
